- study system: BRSK2 (human)
- test name: radiometric filter-binding kinase assay, Kinase HotSpot
- condition notes: compound 0.5 µM; ATP 10 µM
Please go through the items and note down their residual activity.
Please reply with the bare figure in % and do not write the unit itself.

[in] What does the data say about its residual activity? Entry: Oc1ccc(Nc2nc(-c3ccc(Cl)cc3)cs2)cc1
[out] 101

[in] What does the data say about its residual activity? Entry: O=C(CCCc1ccc(-c2ccccc2F)cc1)Nc1ccc(O)cc1
[out] 99.2

[in] What does the data say about its residual activity? Entry: Cc1nc2cc3nc(-c4cccs4)cnc3cc2n1C
[out] 98

[in] What does the data say about its residual activity? Entry: O=C1Nc2ccccc2/C1=C1/Nc2ccccc2/C1=N\OCCC(O)CO (stereo not drawn)
[out] 33.3

[in] What does the data say about its residual activity? Entry: Nc1nccc(-c2c(-c3ccc(F)cc3)ncn2C2CCNCC2)n1
[out] 96.6

[in] What does the data say about its residual activity? Entry: Cn1cnc2cc3c(Nc4cccc(Br)c4)ncnc3cc21
[out] 88.6

[in] What does the data say about its residual activity? Entry: COc1ccc(CNC(=O)Nc2ncc([N+](=O)[O-])s2)cc1
[out] 93.1

[in] What does the data say about its residual activity? Entry: O=C1Cc2c([nH]c3ccc(Br)cc23)-c2ccccc2N1
[out] 62.7

[in] What does the data say about its residual activity? Entry: Cn1nc2c3c(cccc31)C(=O)c1ccccc1-2
[out] 96.4

[in] What does the data say about its residual activity? Entry: O=C1Nc2ccccc2/C1=C1\Nc2ccccc2\C1=N/O
[out] 28

[in] What does the data say about its residual activity? Entry: CC(C)c1nn(-c2c(Cl)cccc2Cl)c2nc(Cc3ccc(OCCO)cc3)nc(O)c12
[out] 98.3

[in] What does the data say about its residual activity? Entry: O=C(O)/C=C/c1cc(Br)c(Br)c(Br)c1Br
[out] 91.1

[in] What does the data say about its residual activity? Entry: CN(C)C[C@H]1CCn2c(c(C3=C(c4cn(C)c5ccccc45)C(=O)NC3=O)c3ccccc32)C1
[out] 102
